TEST: Anti-lymphangiogenic activity in HDLEC assessed as cell growth at 50 ug/ml incubated for 48 hrs by SRB staining based assay relative to control
Type: functional
RUN_PARAMETERS: Homo sapiens, read-out: Activity
QUANTITY: growth at 50 µg/mL (%)
# output: bare number, implied unit %

CC1=CC(=O)[C@@H]2[C@@H](C1)[C@]13CO[C@@]4([C@@H]1O)N1C[C@H]5C[C@H](C)C[C@@]1(O5)[C@@H](O)C[C@@]4(C)[C@]1(COC(=O)C1)[C@H]3C(=O)[C@@H]2C    100

Incoming: Find the recorded growth at 50 µg/mL belonging to `CC1=CC(=O)[C@@H]2[C@@H](C1)[C@]13C=C4N5C[C@H]6C[C@H](C)C[C@@]5(O6)[C@@H](O)C[C@@]4(C)[C@]4(COC(=O)C4)[C@H]1[C@@](O)(OC3)[C@@H]2C` and report it.
Outgoing: 83

Incoming: Same thing, different molecule: `CC1=CC(=O)[C@@H]2[C@@H](C1)[C@]13C=C4N5C[C@H]6C[C@H](C)C[C@]5(CC[C@@]4(C)[C@]4(COC(=O)C4)[C@H]1[C@@](O)(OC3)[C@@H]2C)O6`
Outgoing: 88

====

TEST: Anti-lymphangiogenic activity in HDLEC assessed as cell growth at 50 ug/ml incubated for 48 hrs by SRB staining based assay relative to control
Assay type: functional
RUN_PARAMETERS: Homo sapiens, read-out: Activity
QUANTITY: growth at 50 µg/mL (%)
# output: bare number, implied unit %

Consider the following illustrative entries.
C[C@H]1C[C@@H]2CN3C4=C[C@@]56CO[C@]7(C)CC(=O)[C@@H]([C@H]5C7)[C@@H](C)C(=O)[C@H]6[C@@]5(COC(=O)C5)[C@]4(C)CC[C@@]3(C1)O2    82
CC1=CC(=O)[C@@H]2[C@@H](C1)[C@]1(C)C=C3N4C[C@@H]5O[C@@]4(CC[C@@]3(C)[C@]3(COC(=O)C3)[C@H]1C(=O)[C@@H]2C)C[C@@H](C)[C@H]5O    85

Incoming: Find the recorded growth at 50 µg/mL belonging to `CC1=CC(=O)[C@@H]2[C@@H]([C@@H]1O)[C@]1(C)C=C3N4C[C@H]5C[C@H](C)C[C@]4(CC[C@@]3(C)[C@]3(COC(=O)C3)[C@H]1C(=O)[C@@H]2C)O5` and report it.
Outgoing: 75

Incoming: Same thing, different molecule: `COC(=O)CNCC1=CC(=O)[C@@H]2[C@@H](C1)[C@]13C=C4N5C[C@H]6C[C@H](C)C[C@]5(CC[C@@]4(C)[C@]4(COC(=O)C4)[C@H]1[C@@](O)(OC3)[C@@H]2C)O6`
Outgoing: 38

Incoming: Same thing, different molecule: `CC1=CC(=O)[C@@H]2[C@@H](C1)[C@]13C=C4N5C[C@@H]6O[C@@]5(CC[C@@]4(C)[C@]4(COC(=O)C4)[C@H]1[C@@](O)(OC3)[C@@H]2C)C[C@@H](C)[C@H]6O`
Outgoing: 101

Incoming: Same thing, different molecule: `C[C@H]1C[C@@H]2CN3[C@H]4C(=O)[C@@]56CO[C@]7(C)CC(=O)[C@@H]([C@H]5C7)[C@@H](C)C(=O)[C@@H]6[C@@]5(COC(=O)C5)[C@]4(C)CC[C@@]3(C1)O2`
Outgoing: 86

Incoming: Same thing, different molecule: `CC1=CC(=O)[C@@H]2[C@@H](C1)[C@]1(C)C=C3N4C[C@H]5C[C@H](C)C[C@]4(CC[C@@]3(C)[C@]3(COC(=O)C3)[C@H]1C(=O)[C@@H]2C)O5`
Outgoing: 91

Incoming: Same thing, different molecule: `CC1=CC(=O)[C@@H]2[C@@H](C1)[C@]13CO[C@@]4([C@@H]1O)N1C[C@H]5C[C@H](C)C[C@]1(CC[C@@]4(C)[C@]1(COC(=O)C1)[C@H]3C(=O)[C@@H]2C)O5`
Outgoing: 81

Incoming: Same thing, different molecule: `C[C@H]1C[C@@H]2CN3C4=C[C@@]5(C)[C@@H]6CC(CO)=CC(=O)[C@H]6[C@@H](C)C(=O)[C@@H]5[C@@]5(COC(=O)C5)[C@]4(C)CC[C@@]3(C1)O2`
Outgoing: 56

Incoming: Same thing, different molecule: `C[C@H]1C[C@@H]2CN3C4=C[C@@]56CO[C@]7(C)CC(=O)[C@@H]([C@H]5C7)[C@@H](C)C(=O)[C@@H]6[C@@]5(COC(=O)C5)[C@]4(C)CC[C@@]3(C1)O2`
Outgoing: 85

====

Documented growth at 50 µg/mL across a set of compounds
TEST: Anti-lymphangiogenic activity in HDLEC assessed as cell growth at 50 ug/ml incubated for 48 hrs by SRB staining based assay relative to control
Format: functional
RUN_PARAMETERS: Homo sapiens, read-out: Activity
# output: bare number, implied unit %

Consider the following illustrative entries.
CC1=CC(=O)[C@@H]2[C@@H](C1)[C@]13CO[C@@]4([C@@H]1O)N1C[C@@H]5O[C@@]1(CC[C@@]4(C)[C@]1(COC(=O)C1)[C@H]3C(=O)[C@@H]2C)C[C@@H](C)[C@H]5O    98
COC(=O)CNCC1=CC(=O)[C@@H]2[C@@H](C1)[C@]13CO[C@@]4([C@@H]1O)N1C[C@H]5C[C@H](C)C[C@]1(CC[C@@]4(C)[C@]1(COC(=O)C1)[C@H]3C(=O)[C@@H]2C)O5    76
C[C@H]1C[C@@H]2CN3C4=C[C@@]56CO[C@@](O)([C@H](C)[C@@H]7C(=O)C=C(CO)C[C@H]75)[C@@H]6[C@@]5(COC(=O)C5)[C@]4(C)CC[C@@]3(C1)O2    60

API: the following record is the query input.
Incoming: Find the recorded growth at 50 µg/mL belonging to `C[C@H]1C[C@@H]2CN3[C@](CC[C@@]4(C)[C@]5(COC(=O)C5)[C@H]5C(=O)[C@H](C)[C@@H]6C(=O)C=C(CO)C[C@H]6[C@@]56CO[C@@]34[C@@H]6O)(C1)O2` and report it.
Outgoing: 66

src = ChEMBL document CHEMBL4376824
